These data points were gathered from patent US20040086880A1.

- Target: Bst DNA polymerase (Geobacillus stearothermophilus, UniProt P52026)
- Sequence (P52026 290-876 limits assumed): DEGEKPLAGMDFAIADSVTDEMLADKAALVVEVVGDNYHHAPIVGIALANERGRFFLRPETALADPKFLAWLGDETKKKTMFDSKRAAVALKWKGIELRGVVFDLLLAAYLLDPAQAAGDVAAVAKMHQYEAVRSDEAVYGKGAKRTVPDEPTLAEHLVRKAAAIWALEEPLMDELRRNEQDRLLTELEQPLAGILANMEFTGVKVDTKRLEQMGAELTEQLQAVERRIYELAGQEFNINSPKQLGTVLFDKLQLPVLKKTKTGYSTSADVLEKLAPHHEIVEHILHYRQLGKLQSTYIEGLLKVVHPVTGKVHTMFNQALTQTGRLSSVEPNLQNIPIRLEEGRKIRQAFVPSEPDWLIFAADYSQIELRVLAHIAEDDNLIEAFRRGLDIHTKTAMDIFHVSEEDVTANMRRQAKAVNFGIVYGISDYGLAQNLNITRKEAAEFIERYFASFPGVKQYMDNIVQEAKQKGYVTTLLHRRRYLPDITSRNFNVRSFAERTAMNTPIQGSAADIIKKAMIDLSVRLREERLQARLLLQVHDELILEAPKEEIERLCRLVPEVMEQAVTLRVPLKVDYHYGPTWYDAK
- Experiment notes: Single nucleotide extension of 6-mer primers at varying dNTP concentration
I'd appreciate it if you could supply EC50 values for the items below.

So for Cc1cn([C@H]2C[C@H](O)[C@@H](COP(=O)(O)OP(=O)(O)OP(=O)(O)O)O2)c(=S)[nH]c1=O [2-thiothymidine-5′-triphosphate] , the logged EC50 turned out to be ~6 µM

So for Cc1cn([C@H]2C[C@H](O)[C@@H](COP(=O)(O)OP(=O)(O)OP(=O)(O)O)O2)c(=O)[nH]c1=O [dTTP, 2′-deoxythymidine-5′-triphosphate, reference compound] , the logged EC50 turned out to be ~4 µM

###

- Target: Bst DNA polymerase (Geobacillus stearothermophilus, UniProt P52026)
- Construct: purchased New England Biolabs
- Experiment notes: Single nucleotide extension of 6-mer primers at varying dNTP concentration
- Format: biochemical
- Test parameters: dNTP 0.5 microM to 130 microM; 45° C., 8 hours
Endpoint label: extension efficiency of 6-mer primer compared with natural dNTP

Compound	Result
Cc1cn([C@H]2C[C@H](O)[C@@H](COP(=O)(O)OP(=O)(O)OP(=O)(O)O)O2)c(=O)[nH]c1=O [dTTP, 2′-deoxythymidine-5′-triphosphate, reference compound]	very similar
Cc1cn([C@H]2C[C@H](O)[C@@H](COP(=O)(O)OP(=O)(O)OP(=O)(O)O)O2)c(=S)[nH]c1=O [2-thiothymidine-5′-triphosphate]	very similar
